Tested on: MDA-MB-468
experiment: Cytotoxicity against human MDA-MB-468 cells assessed as growth inhibition at 10 uM after 48 hrs by SRB assay
Format: functional
settings: MDA-MB-468, 48 h, read-out: GI
endpoint: inhibition of growth at 10 µM

These solved cases illustrate the format of a correct answer.
CCOC(=O)c1sc(NC(=O)NC2CCCCC2)nc1C < 10%
CCOC(=O)c1sc(NS(=O)(=O)c2ccccc2)nc1C < 10%
CCOC(=O)c1sc(NC(=O)c2cc(OC)c(OC)c(OC)c2)nc1C 8.82%

Record Cc1nc(NC(=O)Nc2ccccc2)sc1C(=O)NN , field inhibition of growth at 10 µM: < 10%
